tested on: NIH-3T3 viability, ATP luminescence; test: murine fibroblast viability via ATP level – cell-based, murine fibroblasts, cytotoxicity control for Trypanosoma cruzi inhibitor project (AID 1159561); details: 4 days
Activity calls are given as the source filed them.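 The calls were made as follows: active = toxic to mouse fibroblast host cells, with IC50 below 50 µM; inactive = the rest.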
Possible outcomes: active, inactive

> print(dat)
                                    compound  group.label
 1  Clc1ccc(OCCN2CCCCC2c2cccnc2)c(Cl)c1 (stereo not drawn)       active
 2  c1cncc(CN(Cc2ccco2)Cc2cn[nH]c2-c2cccs2)c1       active
 3         O=C(NCC1CCCCC1)c1cc(=O)c2ccccc2o1       active
 4  COc1ccc(S(=O)(=O)NC(C)C)cc1Nc1ncc(-c2cccc(F)c2)cn1       active
 5  Cn1nc([N+](=O)[O-])nc1Oc1ccc(C(=O)c2ccccc2)cc1     inactive
 6  COc1cc(NC(=O)Nc2cccc(CNC(=O)OC3CCCCC3)c2)ccc1-c1cnco1       active
 7  Cc1nc(N2CCC(C(=O)N3CCC(O)(c4cccnc4)CC3)CC2)nc2ccc(C(C)C)cc12       active
 8  C=CCOCC1Cn2nc([N+](=O)[O-])nc2O1 (stereo not drawn)     inactive
 9  COc1cccc(CCNC(=O)C(c2cn[nH]c2)N2CCN(c3ccc(Cl)cc3)CC2)c1 (stereo not drawn)       active
10      Cc1c(C(=O)NCCCCn2ccnc2)oc2c(C)cccc12       active
11  O=C(CCCn1cnc([N+](=O)[O-])n1)Nc1cccc(Cl)c1     inactive
12  Cc1c(C#N)c([N+](=O)[O-])nn1Cc1cccc(Cl)c1Cl       active
13  CN(Cc1cccnc1)Cc1ccc(N2CCN(C(=O)C3(c4ccc(Cl)cc4)CC3)CC2)nc1       active
14  COc1ccc(S(=O)(=O)NCc2ccc(-c3ccc(CN(C)CCO)cc3)cc2)cc1       active
15  Cc1cccnc1CN1CCN(CCCOc2ccc(-c3ccc(C(N)=O)cc3)cc2)CC1       active
16  O=c1[nH]cnc2c([C@@H]3O[C@H](CO)[C@@H](O)[C@H]3O)[nH]nc12     inactive
17         CCOc1ccc(NC(=O)C=Cc2ccc(CC)o2)cc1       active
18        O=C(NCCc1ccccc1Cl)c1cccn1-c1cccnc1       active
19  O=C(NCCc1ccccn1)C(c1cn[nH]c1)N1CCN(c2ccc(Cl)c(Cl)c2)CC1 (stereo not drawn)       active
20  Cn1nccc1-c1cc(OC(CN)c2ccccc2)cnc1-c1ccco1 (stereo not drawn)       active
21  O=C(Nc1ccc(C(=O)N2CCCC2c2ccc3c(c2)OCCCO3)cc1)c1ccco1 (stereo not drawn)     inactive
22  CC(CNS(=O)(=O)c1ccc(OC(F)F)cc1)c1ccc(NC(=O)c2ccncc2)cc1 (stereo not drawn)     inactive
23  CC(C)Oc1cccc(N2CCC(C(=O)N3CCCN(C(C)C)CC3)CC2)c1       active
24  Cc1ccc(S(=O)(=O)Cn2nnnc2C(c2cccnc2)N2CCN(c3ccccc3)CC2)cc1 (stereo not drawn)       active
25  CC(C(=O)Nc1ccccc1F)N(C)CC(=O)Nc1cccc2ccccc12 (stereo not drawn)       active
26  FC(F)(F)c1cc(C2CCCN(Cc3c[nH]c4ccccc34)C2)nc2ncnn12 (stereo not drawn)       active
27  Cc1ccc(NC(=O)c2ccc(Cl)c(NC(=O)c3ccc([N+](=O)[O-])cc3)c2)cc1       active
28  O=c1cc(NCCCNC2CCOc3c(I)cc(Cl)cc32)[nH]c2ccccc12 (stereo not drawn)       active
29  Cc1nnnn1-c1cccc(C(=O)N2CCC[C@@]3(C)c4ncncc4CCC23)c1 (stereo partly drawn)     inactive
30  Cc1cc(Br)cc(C(=O)c2c(C(C)C)c(=O)[nH]c(=O)n2Cc2ccnc(N)c2)c1       active
31  Cc1c(CNC(=O)c2ccc(Cn3cc(Cl)c([N+](=O)[O-])n3)cc2)cnn1C     inactive
32  O=C(NC1C(=O)N(c2ccccc2)C1c1cccnc1)c1ccc(Cl)s1 (stereo not drawn)     inactive
33   CN(Cc1nc2ccccc2s1)C(=O)C=Cc1cc2ccccc2o1       active

Data credit: PubChem BioAssay AID1159561
